measurement-target: SyHR (Synechocystis sp. PCC 7509, UniProt A0A9X9ZA75)
Sequence (A0A9X9ZA75 1-234): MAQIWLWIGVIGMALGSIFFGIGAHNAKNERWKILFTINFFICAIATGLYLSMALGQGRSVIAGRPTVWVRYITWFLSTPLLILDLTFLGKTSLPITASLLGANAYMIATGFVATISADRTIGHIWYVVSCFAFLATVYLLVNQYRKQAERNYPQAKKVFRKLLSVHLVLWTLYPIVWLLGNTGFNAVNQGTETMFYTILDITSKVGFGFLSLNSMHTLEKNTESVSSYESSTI
pKd: −log10 of the molar value.

compound	measurement-target	pKd
O=[N+]([O-])O [c, NO3^−]	SyHR (Synechocystis sp. PCC 7509, UniProt A0A9X9ZA75)	2.21
I [d, I^−]	SyHR (Synechocystis sp. PCC 7509, UniProt A0A9X9ZA75)	3.68
Br [b, Br^−]	SyHR (Synechocystis sp. PCC 7509, UniProt A0A9X9ZA75)	3.96
Cl [a, Cl^−]	SyHR (Synechocystis sp. PCC 7509, UniProt A0A9X9ZA75)	3.55
